Origin of values: the supplement of paper PMC7877785

ASSAY_METHOD_TEXT: self-splicing fitness, log relative to wild type (ln ratio); higher = more splicing; Tetrahymena group I intron in knt gene, E. coli kanamycin selection, DiMSum; sequences stand for … in CUCUCU…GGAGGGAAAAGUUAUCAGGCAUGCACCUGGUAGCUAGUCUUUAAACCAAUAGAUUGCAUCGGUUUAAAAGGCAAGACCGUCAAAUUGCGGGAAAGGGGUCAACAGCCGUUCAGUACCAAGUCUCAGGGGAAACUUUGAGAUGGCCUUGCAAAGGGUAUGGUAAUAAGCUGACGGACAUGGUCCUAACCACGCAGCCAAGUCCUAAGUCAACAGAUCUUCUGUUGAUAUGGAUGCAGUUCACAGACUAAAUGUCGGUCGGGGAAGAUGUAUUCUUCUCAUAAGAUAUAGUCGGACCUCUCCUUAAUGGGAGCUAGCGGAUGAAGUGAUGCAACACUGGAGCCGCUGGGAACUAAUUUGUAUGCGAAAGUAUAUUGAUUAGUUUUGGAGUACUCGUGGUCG;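 also: selection with 25 µg/mL kanamycin versus none on LB agar overnight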
CONDITION_DESCRIPTION: 37 °C
MEASURED_ATTRIBUTE: self-splicing fitness (ln)

[[record]]
sequence_string = "UGUUAGCAAUAUUACGAGUG"
measured_attribute = "self-splicing fitness (ln)"
result = -0.336

[[record]]
sequence_string = "AACCAGCAAUAUUACGCCCC"
measured_attribute = "self-splicing fitness (ln)"
result = -0.517

[[record]]
sequence_string = "AUCAAGCAAUAUUACGCAAC"
measured_attribute = "self-splicing fitness (ln)"
result = -2.37

[[record]]
sequence_string = "AGAUAGCAAUAUUACGAUAU"
measured_attribute = "self-splicing fitness (ln)"
result = -0.119

[[record]]
sequence_string = "GCCAAGCAAUAUUACGCAUG"
measured_attribute = "self-splicing fitness (ln)"
result = -2.22

[[record]]
sequence_string = "GGGUAGCAAUAUUACGAGAU"
measured_attribute = "self-splicing fitness (ln)"
result = -1.59

[[record]]
sequence_string = "UCCCAGCAAUAUUACGCGGC"
measured_attribute = "self-splicing fitness (ln)"
result = -0.462

[[record]]
sequence_string = "CAUUAGCAAUAUUACGCCGU"
measured_attribute = "self-splicing fitness (ln)"
result = -1.84

[[record]]
sequence_string = "ACUAAGCAAUAUUACGCUUU"
measured_attribute = "self-splicing fitness (ln)"
result = -1.97

[[record]]
sequence_string = "AACGAGCAAUAUUACGACUA"
measured_attribute = "self-splicing fitness (ln)"
result = -0.213

[[record]]
sequence_string = "GUAUAGCAAUAUUACGUUCG"
measured_attribute = "self-splicing fitness (ln)"
result = -1.53

[[record]]
sequence_string = "UGUGAGCAAUAUUACGUAUU"
measured_attribute = "self-splicing fitness (ln)"
result = -2.63

[[record]]
sequence_string = "GCUCAGCAAUAUUACGCACG"
measured_attribute = "self-splicing fitness (ln)"
result = -1.02

[[record]]
sequence_string = "ACCGAGCAAUAUUACGCGUU"
measured_attribute = "self-splicing fitness (ln)"
result = -1.58

[[record]]
sequence_string = "AUAAAGCAAUAUUACGAUCU"
measured_attribute = "self-splicing fitness (ln)"
result = 0.308

[[record]]
sequence_string = "GUCAAGCAAUAUUACGUGAA"
measured_attribute = "self-splicing fitness (ln)"
result = 0.556

[[record]]
sequence_string = "UCAUAGCAAUAUUACGAUUC"
measured_attribute = "self-splicing fitness (ln)"
result = -2.6

[[record]]
sequence_string = "UAAAAGCAAUAUUACGCGUC"
measured_attribute = "self-splicing fitness (ln)"
result = -2.7

[[record]]
sequence_string = "UGACAGCAAUAUUACGCUCA"
measured_attribute = "self-splicing fitness (ln)"
result = -0.155

[[record]]
sequence_string = "AUUAAGCAAUAUUACGUAUG"
measured_attribute = "self-splicing fitness (ln)"
result = -1.47

